# measured.target: GppNHp loaded KRAS4b(1-169) H95C/C118S mutant (Homo sapiens, UniProt P01116, C118S/H95C)
# Construct: loaded KRAS4b(1-169) H95C/C118S mutant
# protocol.description: MALDI-TOF percentage labeling of C95, GppNHp-loaded protein
# Format: binding
# condition.label: 6 h incubation
readout: level of covalent labeling to C95 (percent of labeling), GppNHp, 6 h (%)
Field: numeric (%). Do not append units.

Worked examples, 2 molecules total:
{"molecule": "Cn1nc(C(=O)NCc2cn(C[C@H]3CO3)nn2)c2cc(Br)ccc21", "data.value": 2}
{"molecule": "O=C(NCc1cn(C[C@@H]2CO2)nn1)c1c[nH]c2ccccc12", "data.value": 4}

Using the record for `COc1ccc(Cl)cc1C(=O)N[C@H]1COC1=O` , state its measured level of covalent labeling to C95 (percent of labeling), GppNHp, 6 h.
81

Using the record for COc1ccc(Cl)cc1C(=O)N1CCCC(C(=O)N[C@@H](CC(C)C)C(=O)[C@@]2(C)CO2)C1 (stereo partly shown) , state its measured level of covalent labeling to C95 (percent of labeling), GppNHp, 6 h.
0

###

# measured.target: GDP loaded KRAS4b(1-169) H95C/C118S mutant (Homo sapiens, UniProt P01116, C118S/H95C)
# Construct: loaded KRAS4b(1-169) H95C/C118S mutant
# protocol.description: MALDI-TOF percentage labeling of C95, GDP-loaded protein
# Type: binding
# condition.label: 6 h incubation
Examples of compounds with documented level of covalent labeling to C95 (percent of labeling), GDP, 6 h follow.
Field: numeric (%). Do not append units.

Worked examples, 8 compounds total:
{"compound": "O=C(NCc1cn(C[C@H]2CO2)nn1)c1c[nH]c2ccccc12", "measured.target": "GDP loaded KRAS4b(1-169) H95C/C118S mutant (Homo sapiens, UniProt P01116, C118S/H95C)", "data.value": 5}
{"compound": "Cc1ccc(S(=O)(=O)c2cn(CC3OC3(C)C)nn2)cc1 (centres unmarked)", "measured.target": "GDP loaded KRAS4b(1-169) H95C/C118S mutant (Homo sapiens, UniProt P01116, C118S/H95C)", "data.value": 0}
{"compound": "COc1ccc(Cl)cc1C(=O)N1CCCC(C(=O)N[C@@H](CC(C)C)C(=O)[C@@]2(C)CO2)C1 (some centres unmarked)", "measured.target": "GDP loaded KRAS4b(1-169) H95C/C118S mutant (Homo sapiens, UniProt P01116, C118S/H95C)", "data.value": 0}
{"compound": "Cn1nc(C(=O)NCc2cn(C[C@H]3CO3)nn2)c2cc(Br)ccc21", "measured.target": "GDP loaded KRAS4b(1-169) H95C/C118S mutant (Homo sapiens, UniProt P01116, C118S/H95C)", "data.value": 10}
{"compound": "CC(C)C[C@H](NC(=O)c1cn(C)c2ccccc12)C(=O)[C@@]1(C)CO1", "measured.target": "GDP loaded KRAS4b(1-169) H95C/C118S mutant (Homo sapiens, UniProt P01116, C118S/H95C)", "data.value": 0}
{"compound": "CC(=O)Oc1ccccc1C(=O)NCc1cn(C[C@@H]2CO2)nn1", "measured.target": "GDP loaded KRAS4b(1-169) H95C/C118S mutant (Homo sapiens, UniProt P01116, C118S/H95C)", "data.value": 12}
{"compound": "CC(C)Cc1ccc(C(C)C(=O)NCc2cn(C[C@@H]3CO3)nn2)cc1 (some centres unmarked)", "measured.target": "GDP loaded KRAS4b(1-169) H95C/C118S mutant (Homo sapiens, UniProt P01116, C118S/H95C)", "data.value": 73}
{"compound": "Cn1nc(C(=O)NCc2cn(C[C@@H]3CO3)nn2)c2ccccc21 [drawing 514]", "measured.target": "GDP loaded KRAS4b(1-169) H95C/C118S mutant (Homo sapiens, UniProt P01116, C118S/H95C)", "data.value": 9}

Using the record for `O=C(NCc1cn(C[C@@H]2CO2)nn1)c1c[nH]c2ccccc12` , state its measured level of covalent labeling to C95 (percent of labeling), GDP, 6 h.
18

Using the record for `Cn1cc(C(=O)NCc2cn(C[C@@H]3CO3)nn2)c2cc(Br)ccc21` , state its measured level of covalent labeling to C95 (percent of labeling), GDP, 6 h.
42

Using the record for `CC(C)C[C@H](NC(=O)c1cn(C)c2ccc(Br)cc12)C(=O)[C@@]1(C)CO1` , state its measured level of covalent labeling to C95 (percent of labeling), GDP, 6 h.
0

Using the record for `Cn1nc(C(=O)NCc2cn(C[C@@H]3CO3)nn2)c2cc(Br)ccc21` , state its measured level of covalent labeling to C95 (percent of labeling), GDP, 6 h.
52

Using the record for `COc1ccc(Cl)cc1C(=O)N[C@H]1COC1=O` , state its measured level of covalent labeling to C95 (percent of labeling), GDP, 6 h.
91

Using the record for `Cn1nc(C(=O)NCc2cn(C[C@H]3CO3)nn2)c2ccccc21` , state its measured level of covalent labeling to C95 (percent of labeling), GDP, 6 h.
0

###

# measured.target: GppNHp loaded KRAS4b(1-169) H95C/C118S mutant (Homo sapiens, UniProt P01116, C118S/H95C)
# Construct: loaded KRAS4b(1-169) H95C/C118S mutant
# protocol.description: MALDI-TOF percentage labeling of C95, GppNHp-loaded protein
# Type: binding
# condition.label: 3 h incubation
readout: level of covalent labeling to C95 (percent of labeling), GppNHp, 3 h (%)
Field: numeric (%). Do not append units.

Worked examples, 6 molecules total:
{"molecule": "Cc1ccc(S(=O)(=O)c2cn(CC3OC3(C)C)nn2)cc1 (stereo not shown)", "measured.target": "GppNHp loaded KRAS4b(1-169) H95C/C118S mutant (Homo sapiens, UniProt P01116, C118S/H95C)", "data.value": 0}
{"molecule": "Cn1nc(C(=O)NCc2cn(C[C@H]3CO3)nn2)c2cc(Br)ccc21", "measured.target": "GppNHp loaded KRAS4b(1-169) H95C/C118S mutant (Homo sapiens, UniProt P01116, C118S/H95C)", "data.value": 0}
{"molecule": "Cn1cc(C(=O)NCc2cn(C[C@@H]3CO3)nn2)c2cc(Br)ccc21", "measured.target": "GppNHp loaded KRAS4b(1-169) H95C/C118S mutant (Homo sapiens, UniProt P01116, C118S/H95C)", "data.value": 3}
{"molecule": "Cn1nc(C(=O)NCc2cn(C[C@@H]3CO3)nn2)c2ccccc21 [drawing 514]", "measured.target": "GppNHp loaded KRAS4b(1-169) H95C/C118S mutant (Homo sapiens, UniProt P01116, C118S/H95C)", "data.value": 0}
{"molecule": "Cn1nc(C(=O)NCc2cn(C[C@@H]3CO3)nn2)c2cc(Br)ccc21", "measured.target": "GppNHp loaded KRAS4b(1-169) H95C/C118S mutant (Homo sapiens, UniProt P01116, C118S/H95C)", "data.value": 0}
{"molecule": "CC(C)C[C@H](NC(=O)c1cn(C)c2ccc(Br)cc12)C(=O)[C@@]1(C)CO1", "measured.target": "GppNHp loaded KRAS4b(1-169) H95C/C118S mutant (Homo sapiens, UniProt P01116, C118S/H95C)", "data.value": 0}

Using the record for `O=C(NCc1cn(C[C@H]2CO2)nn1)c1c[nH]c2ccccc12` , state its measured level of covalent labeling to C95 (percent of labeling), GppNHp, 3 h.
0

Using the record for COc1ccc(Cl)cc1C(=O)N1CCCC(C(=O)N[C@@H](CC(C)C)C(=O)[C@@]2(C)CO2)C1 (stereo partly shown) , state its measured level of covalent labeling to C95 (percent of labeling), GppNHp, 3 h.
0

Using the record for `Cn1nc(C(=O)NCc2cn(C[C@H]3CO3)nn2)c2ccccc21` , state its measured level of covalent labeling to C95 (percent of labeling), GppNHp, 3 h.
0

Using the record for `O=C(NCc1cn(C[C@@H]2CO2)nn1)c1c[nH]c2ccccc12` , state its measured level of covalent labeling to C95 (percent of labeling), GppNHp, 3 h.
2

###

# measured.target: GppNHp loaded KRAS4b(1-169) H95C/C118S mutant (Homo sapiens, UniProt P01116, C118S/H95C)
# Construct: loaded KRAS4b(1-169) H95C/C118S mutant
# protocol.description: MALDI-TOF percentage labeling of C95, GppNHp-loaded protein
# Type: binding
# condition.label: 24 h incubation
Examples of compounds with documented level of covalent labeling to C95 (percent of labeling), GppNHp, 24 h follow.
Write the figure, then the unit, nothing else.

Worked examples, 2 compounds total:
{"compound": "Cn1nc(C(=O)NCc2cn(C[C@@H]3CO3)nn2)c2ccccc21 [drawing 514]", "measured.target": "GppNHp loaded KRAS4b(1-169) H95C/C118S mutant (Homo sapiens, UniProt P01116, C118S/H95C)", "data.value": "13%"}
{"compound": "Cn1nc(C(=O)NCc2cn(C[C@H]3CO3)nn2)c2cc(Br)ccc21", "measured.target": "GppNHp loaded KRAS4b(1-169) H95C/C118S mutant (Homo sapiens, UniProt P01116, C118S/H95C)", "data.value": "10%"}

Using the record for `CC(C)C[C@H](NC(=O)c1cn(C)c2ccc(Br)cc12)C(=O)[C@@]1(C)CO1` , state its measured level of covalent labeling to C95 (percent of labeling), GppNHp, 24 h.
0%
